# MIC annotations
Tested on: Escherichia coli ATCC 25922
measurement notes: Minimum inhibitory concentration, broth micro-dilution (CLSI), E. coli
Assay type: cell-based
conditions: Escherichia coli, ATCC25922, 22 h, read-out: MIC (μg/mL) E. coli, E. coli ATCC 25922; 35° C., 22 hours
Write the value in µg/mL as a bare number.

// sample `C#CCC(C)(C)COc1ccc(C(=O)N[C@@H](CCN)C(=O)N(C)[C@@H]2C(=O)N[C@@H](C)C(=O)N[C@H](C(=O)NCC#N)Cc3ccc(OCCN)c(c3)-c3cc2ccc3OCCN)c(C)c1` , its MIC was 1

// sample `CCCCc1ccc(C(=O)N[C@H](CCO)C(=O)N[C@@H](CCN)C(=O)N(C)[C@@H]2C(=O)N[C@@H](C)C(=O)N[C@H](C(=O)NCC#N)Cc3ccc(OCCN)c(c3)-c3cc2ccc3OCCN)c(C)c1` , its MIC was 64

// sample `C[C@@H]1NC(=O)[C@@H](N(C)C(=O)[C@H](CCN)NC(=O)c2ccc(-c3ccc(C4CCCCC4)cc3)cc2)c2ccc(OCCN)c(c2)-c2cc(ccc2OCCN)C[C@@H](C(=O)NCC#N)NC1=O` , its MIC was 0.13

// sample `CCCCCCCCCC(=O)N(C)[C@@H](CO)C(=O)N[C@@H](CCN)C(=O)N(C)[C@@H]1C(=O)N[C@@H](C)C(=O)N[C@H](C(=O)NCC#N)Cc2ccc(OCCN)c(c2)-c2cc1ccc2OCCN` , its MIC was 48

// sample `CCCCCCCCCCN(CCN)CCC(=O)N(C)[C@@H]1C(=O)N[C@@H](C)C(=O)N[C@H](C(=O)NCC#N)Cc2ccc(OCCN)c(c2)-c2cc1ccc2OCCN` , its MIC was 64

// sample `C[C@@H]1NC(=O)[C@@H](N(C)C(=O)[C@H](CCCCN)NC(=O)c2ccc(-c3ccc(C(C)(C)C)cc3)cc2)c2ccc(OCCN)c(c2)-c2cc(ccc2OCCN)C[C@@H](C(=O)NCC#N)NC1=O` , its MIC was 0.5

// sample `CCCCCCc1ccc(S(=O)(=O)N[C@@H](CCN)C(=O)N(C)[C@@H]2C(=O)N[C@@H](C)C(=O)N[C@H](C(=O)NCC#N)Cc3ccc(OCCN)c(c3)-c3cc2ccc3OCCN)c(C)c1` , its MIC was 8

// sample `CCCCCCCCCC(=O)NCCC(=O)NCC(=O)N[C@@H](CCN)C(=O)N(C)[C@@H]1C(=O)N[C@@H](C)C(=O)N[C@H](C(=O)NCC#N)Cc2ccc(OCCN)c(c2)-c2cc1ccc2OCCN` , its MIC was 64

// sample `CCCCCCCOc1cc(Cl)c(C(=O)N[C@@H](CCN)C(=O)N(C)[C@@H]2C(=O)N[C@@H](C)C(=O)N[C@H](C(=O)NCC#N)Cc3ccc(OCCN)c(c3)-c3cc2ccc3OCCN)c(Cl)c1` , its MIC was 0.38

For the next question, use this molecule.
// sample `CCCCc1ccc(-c2ccc(C(=O)N[C@@H](CCCCN)C(=O)N(C)[C@@H]3C(=O)N[C@@H](C)C(=O)N[C@H](C(=O)NCC#N)Cc4ccc(OCCN)c(c4)-c4cc3ccc4OCCN)cc2)cc1` , its MIC was 0.69

---

System: Methicillin Resistant Staphylococcus aureus strain USA 300, NRS384
measurement notes: Minimum inhibitory concentration, broth micro-dilution (CLSI), S. aureus
Assay type: cell-based
conditions: Staphylococcus aureus, MRSA / NRS 384 / USA300, 22 h, MRSA USA 300 NRS384; 35° C., 22 hours; read-out: MIC (μg/mL) S. aureus
assay readout: MIC (µg/mL)
Write the value in µg/mL as a bare number.

In the examples that follow, each entry is paired with its recorded MIC.
// sample `CCCCCCc1ccc(C(=O)N[C@@H](CCNC(=N)N)C(=O)N(C)[C@@H]2C(=O)N[C@@H](C)C(=O)N[C@H](C(=O)NCC#N)Cc3ccc(OCCN)c(c3)-c3cc2ccc3OCCN)c(C)c1` , its MIC was 0.063

// sample `CCCCCCCCc1ccc(C(=O)N(C)[C@@H]2C(=O)N[C@@H](C)C(=O)N[C@H](C(=O)NCC#N)Cc3ccc(OCCN)c(c3)-c3cc2ccc3OCCN)cc1` , its MIC was 2

// sample `CCCCCCc1ccc(C(=O)N[C@@H](CCN)C(=O)N(C)[C@@H]2C(=O)N[C@@H](C)C(=O)N[C@H](C(=O)NCC#N)Cc3ccc(OCCN)c(c3)-c3cc2ccc3OCCN)c(C)c1` , its MIC was 0.078

// sample `Cc1cc(-c2ccc(Cl)cc2)ccc1C(=O)N[C@@H](CCN)C(=O)N(C)[C@@H]1C(=O)N[C@@H](C)C(=O)N[C@H](C(=O)NCC#N)Cc2ccc(OCCN)c(c2)-c2cc1ccc2OCCN` , its MIC was 0.055

// sample `Cc1cc(/C=C/c2ccccc2)ccc1C(=O)N[C@@H](CCN)C(=O)N(C)[C@@H]1C(=O)N[C@@H](C)C(=O)N[C@H](C(=O)NCC#N)Cc2ccc(OCCN)c(c2)-c2cc1ccc2OCCN` , its MIC was 0.063

---
// sample `CCC/C=C\c1ccc(C(=O)N[C@@H](CCN)C(=O)N(C)[C@@H]2C(=O)N[C@@H](C)C(=O)N[C@H](C(=O)NCC#N)Cc3ccc(OCCN)c(c3)-c3cc2ccc3OCCN)c(C)c1` , its MIC was 0.063

// sample `CCCCc1ccc(C(=O)N[C@H](CCCCN)CC(=O)N(C)[C@@H]2C(=O)N[C@@H](C)C(=O)N[C@H](C(=O)NCC#N)Cc3ccc(OCCN)c(c3)-c3cc2ccc3OCCN)c(C)c1` , its MIC was 1.5

// sample `Cc1cc(-c2ccc(CC(C)C)nc2)ccc1C(=O)N[C@@H](CCN)C(=O)N(C)[C@@H]1C(=O)N[C@@H](C)C(=O)N[C@H](C(=O)NCC#N)Cc2ccc(OCCN)c(c2)-c2cc1ccc2OCCN` , its MIC was 0.13

// sample `Cc1cc(-c2ccc(CC(C)C)cc2)ccc1C(=O)N[C@@H](CCN)C(=O)N(C)[C@@H]1C(=O)N[C@@H](C)C(=O)N[C@H](C(=O)NCC#N)Cc2ccc(OCCN)c(c2)-c2cc1ccc2OCCN` , its MIC was 0.047

// sample `Cc1cc(CCC(C)C)ccc1C(=O)N[C@@H](CCN)C(=O)N(C)[C@@H]1C(=O)N[C@@H](C)C(=O)N[C@H](C(=O)NCC#N)Cc2ccc(OCCN)c(c2)-c2cc1ccc2OCCN` , its MIC was 0.094

// sample `CCCCCCCCCCCCCC(=O)N[C@@H](CCN)C(=O)N(C)[C@@H]1C(=O)N[C@@H](C)C(=O)N[C@H](C(=O)NCC#N)Cc2ccc(OCC(=O)O)c(c2)-c2cc1ccc2OCCN` , its MIC was 0.25

// sample `CCCCCCCCCCCCCC(=O)N(C)[C@@H]1C(=O)N[C@@H](C)C(=O)N[C@H](C(=O)NCC#N)Cc2ccc(OCCN)c(c2)-c2cc1ccc2OCCN` , its MIC was 1
